Origin of the recorded values: patent US9102599B2

# ASSAYED_SYSTEM: purified human recombinant CETP (Homo sapiens (Human))
# TEST_DESCRIPTION: CETP Scintillation Proximity Assay
# ASSAY_SETUP: CETP-dependent cholesterol ester transfer from 3H-CE/HDL to biotinylated LDL, 37° C.; read-out: CETP SPA IC50
# Experimental: CETP Scintillation Proximity Assay Dilutions of compounds in DMSO (1 μl) are added to BD plates (#353232). […] At the end of the reaction, 60 μl of LEADseeker beads (#RPNQ0261, 2 mg/ml in buffer containing 1 mg/ml BSA and 0.05 mg protein/ml HDL) are added, the plates are covered and subsequently read. Background activity is determined in a set of wells that receive buffer but no CETP. […]
RECORDED_METRIC: IC50 (nM)

FC(F)(F)Oc1cccc(C(CNc2ncc(N3CCOCC3)cn2)(Cc2ccccc2)c2cccc(OC(F)(F)F)c2)c1 | 248
Cc1ccc(CC(CNC[C@@H](O)C(F)(F)F)(c2cccc(OC(F)(F)F)c2)c2cccc(OC(F)(F)F)c2)cc1 | 9
Cc1cc(CC(CNC[C@H](O)C(F)(F)F)(c2cccc(OC(F)(F)F)c2)c2cccc(OC(F)(F)F)c2)no1 | 134
O=C(NC[C@@](Cc1ccccc1)(c1cc(F)cc(C(F)(F)F)c1)c1ccc(F)cn1)[C@@](O)(c1ccccc1)C(F)(F)F | 4360
Oc1c(F)cccc1CNCC(Cc1ccccc1)(c1cccc(OC(F)(F)F)c1)c1cccc(OC(F)(F)F)c1 | 184

[a] O=C(NCC(Cc1ccccc1)(c1cccc(OC(F)(F)F)c1)c1cccc(OC(F)(F)F)c1)C1CC1(F)F (stereo not shown)
[b] O[C@H](CNCC(Cc1ccccc1)(c1cccc(OC(F)(F)F)c1)c1cccc(OC(F)(F)F)c1)C(F)(F)F
Data request: Hi, I'm comparing two records. Which one has the lower IC50, a or b ? State your choice using its label.
Data returned: b
(b: 14 nM, a: 1430 nM)

---

# ASSAYED_SYSTEM: purified human recombinant CETP (Homo sapiens (Human), UniProt P11597)
# Sequence (P11597 18-493): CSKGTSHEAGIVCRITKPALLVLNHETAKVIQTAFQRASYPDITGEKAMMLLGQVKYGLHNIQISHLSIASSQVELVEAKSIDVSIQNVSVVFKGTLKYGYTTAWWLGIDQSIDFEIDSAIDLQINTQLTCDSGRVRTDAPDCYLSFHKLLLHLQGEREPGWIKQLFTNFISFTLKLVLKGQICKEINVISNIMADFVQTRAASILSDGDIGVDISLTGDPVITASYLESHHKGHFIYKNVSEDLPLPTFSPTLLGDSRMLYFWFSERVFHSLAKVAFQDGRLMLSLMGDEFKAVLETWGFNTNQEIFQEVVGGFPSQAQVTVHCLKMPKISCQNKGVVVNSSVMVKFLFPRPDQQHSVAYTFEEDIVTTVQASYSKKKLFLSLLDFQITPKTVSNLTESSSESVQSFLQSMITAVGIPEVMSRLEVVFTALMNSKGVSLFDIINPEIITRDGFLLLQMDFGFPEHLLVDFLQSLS
# TEST_DESCRIPTION: CETP Scintillation Proximity Assay
# ASSAY_SETUP: CETP-dependent cholesterol ester transfer from 3H-CE/HDL to biotinylated LDL, 37° C.; read-out: CETP SPA IC50
pIC50: −log10 of the molar value.
RECORDED_METRIC: pIC50

Worked cases, answers included:
O=C(NCC(F)(F)F)NCC(Cc1ccccc1)(c1cccc(OC(F)(F)F)c1)c1cccc(OC(F)(F)F)c1 | 6.88
O=S(=O)(CC(F)(F)F)NCC(Cc1ccccc1)(c1cccc(OC(F)(F)F)c1)c1cccc(OC(F)(F)F)c1 | 6.89
O[C@@H](CN(C[C@H](O)C(F)(F)F)CC(Cc1ccccc1)(c1cccc(OC(F)(F)F)c1)c1cccc(OC(F)(F)F)c1)C(F)(F)F | 5.55
O[C@H](CNC[C@@](Cc1ccccc1)(c1cc(F)cc(C(F)(F)F)c1)c1ccc(F)cn1)C(F)(F)F | 7.52
O[C@H](CNCC(Cc1ccccn1)(c1cccc(OC(F)(F)F)c1)c1cccc(OC(F)(F)F)c1)C(F)(F)F | 7.72

[A] FC(F)(F)CCNCC(Cc1ccccc1)(c1cccc(OC(F)(F)F)c1)c1cccc(OC(F)(F)F)c1
[B] O[C@H](CNC[C@@](Cc1ccccc1)(c1cc(F)cc(OC(F)(F)C(F)F)c1)c1ccc(Cl)cn1)C(F)(F)F (stereo in doubt)
Data request: Lab note: check whether A or B has the lower measured pIC50. Your answer should be the label of the entry you select.
Data returned: A
